Cited source: ChEMBL document CHEMBL1124071

# studySystem: Renin (Homo sapiens, UniProt P00797)
# Sequence (P00797 whole entry): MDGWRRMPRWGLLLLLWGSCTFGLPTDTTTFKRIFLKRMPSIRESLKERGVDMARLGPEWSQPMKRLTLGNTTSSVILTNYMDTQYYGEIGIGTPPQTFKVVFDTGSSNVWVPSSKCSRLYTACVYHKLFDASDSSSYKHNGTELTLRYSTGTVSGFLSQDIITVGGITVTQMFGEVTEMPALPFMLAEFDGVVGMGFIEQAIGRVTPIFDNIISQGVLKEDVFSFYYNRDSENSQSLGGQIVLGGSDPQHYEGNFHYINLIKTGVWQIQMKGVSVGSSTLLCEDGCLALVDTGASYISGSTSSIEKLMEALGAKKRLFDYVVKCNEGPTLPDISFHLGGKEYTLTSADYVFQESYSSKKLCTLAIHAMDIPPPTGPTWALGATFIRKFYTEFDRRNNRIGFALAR
# protocolDescription: Inhibitory concentration against human renin
pIC50: −log10 of the molar value.
readoutType: pIC50

Example entries begin here.
COC(=O)[C@H](O)C(CC(C)C)NC(=O)C(Cc1cnc[nH]1)NC(=O)C(CC(=O)NCCc1ccccc1)Cc1cccc2ccccc12 (single isomer, unassigned; (+)); 7.51
COC(=O)C(O)C(CC(C)C)NC(=O)C(Cc1c[nH]cn1)NC(=O)C(CC(=O)N(C)C)Cc1cccc2ccccc12 (configuration not stated); 7.11
COC(=O)C(O)C(CC(C)C)NC(=O)C(Cc1c[nH]cn1)NC(=O)C(CC(=O)NCCc1ccccc1)Cc1cccc2ccccc12 (stereo in doubt); 7.11
CC(C)CC(NC(=O)C(Cc1c[nH]cn1)NC(=O)C(CC(=O)N1CCOCC1)Cc1cccc2ccccc12)C(O)C(=O)NC(C)C (configuration not stated); 6.89

[A] CC(C)CC(NC(=O)C(Cc1cnc[nH]1)NC(=O)C(CC(=O)N1CCOCC1)Cc1cccc2ccccc12)C(O)CC(=O)OC(C)C (configuration not stated)
[B] COC(=O)[C@@H](O)C(CC(C)C)NC(=O)C(Cc1c[nH]cn1)NC(=O)C(CC(=O)NCCc1ccccc1)Cc1cccc2ccccc12 (single isomer, unassigned; (+))
Problem: Sorting by pIC50 in descending order, would A or B appear first? Indicate your choice by writing its label.
Result: A
(A: 6.74, B: 5.89)
